This collection of values is drawn from paper PMC8330742.

system: BT-549; experiment: NCI-60 SRB screen; type: cell-based, human; conditions: Homo sapiens; BT-549; single dose 10^−5 M; read-out: Growth inhibition (%)
Reported inhibition at 10 µM is given for each of the following molecules.

Molecule: N#CC1C(=O)NC(c2ccccc2[N+](=O)[O-])c2sc3c(F)cccc3c21 (stereo not drawn) [Compound 5c]
inhibition at 10 µM / %: 10.8

Molecule: N#CC1C(=O)NC(c2cccc([N+](=O)[O-])c2)c2sc3c(F)cccc3c21 (stereo not drawn) [Compound 5d]
inhibition at 10 µM / %: 8.35

Molecule: O=C1NC(c2cccc([N+](=O)[O-])c2)c2sc3c(F)cccc3c2C1N1CCOCC1 (stereo not drawn) [Compound 6b]
inhibition at 10 µM / %: 1.66

Molecule: O=[N+]([O-])c1cccc(C2NC(Cl)=C(Cl)c3c2sc2c(F)cccc32)c1 (stereo not drawn) [Compound 7a]
inhibition at 10 µM / %: 0.77

Molecule: COc1ccc(C2NC(=O)C(C#N)c3c2sc2c(F)cccc32)cc1 (stereo not drawn) [Compound 5b]
inhibition at 10 µM / %: 44.6

Molecule: O=C1NC(c2cccc([N+](=O)[O-])c2)c2sc3c(F)cccc3c2C1N1CCCCC1 (stereo not drawn) [Compound 6c]
inhibition at 10 µM / %: 1.61

Molecule: O=C1NC(c2cccc([N+](=O)[O-])c2)c2sc3c(F)cccc3c2C1Cl (stereo not drawn) [Compound 4d]
inhibition at 10 µM / %: 3.62

Molecule: CCN1CCN(C2C(=O)NC(c3cccc([N+](=O)[O-])c3)c3sc4c(F)cccc4c32)CC1 (stereo not drawn) [Compound 6a]
inhibition at 10 µM / %: -0.58

Molecule: COc1ccc(C2NC(=O)C(C#N)c3c2sc2c(F)cccc32)c(OC)c1 (stereo not drawn) [Compound 5a]
inhibition at 10 µM / %: 78.6
